binders and their reported T½
Biological target: T1, hPRLR.mmh (soluble monomeric human PRLR) (human)
T1 construct: called soluble monomeric PRLR protein
T1 chain: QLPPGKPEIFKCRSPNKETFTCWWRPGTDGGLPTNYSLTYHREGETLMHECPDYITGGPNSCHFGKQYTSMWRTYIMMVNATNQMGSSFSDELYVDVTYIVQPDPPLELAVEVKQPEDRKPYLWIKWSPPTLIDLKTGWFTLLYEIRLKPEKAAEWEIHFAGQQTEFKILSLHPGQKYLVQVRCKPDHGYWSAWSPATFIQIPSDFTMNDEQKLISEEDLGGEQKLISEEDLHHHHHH
Experiment: SPR Biacore, 25 C, mAb capture
Give just the number in min; leave the unit off.

H1H6774P (antibody, human IgG1, V domains shown, Human IgG1 Fc (H1H)) VH: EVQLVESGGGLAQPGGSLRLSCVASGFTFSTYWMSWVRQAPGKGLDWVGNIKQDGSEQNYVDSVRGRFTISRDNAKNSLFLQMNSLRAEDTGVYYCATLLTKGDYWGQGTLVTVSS VL: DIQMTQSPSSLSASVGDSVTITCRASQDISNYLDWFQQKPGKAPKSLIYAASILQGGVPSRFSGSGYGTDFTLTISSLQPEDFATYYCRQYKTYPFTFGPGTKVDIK | 14
H1H6960N (antibody, human IgG1, V domains shown, Tested with human IgG1 Fc (H1H); also called H2M6960N) VH: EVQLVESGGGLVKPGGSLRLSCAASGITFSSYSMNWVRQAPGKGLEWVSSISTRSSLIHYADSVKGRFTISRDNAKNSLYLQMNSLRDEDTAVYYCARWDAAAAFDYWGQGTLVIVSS VL: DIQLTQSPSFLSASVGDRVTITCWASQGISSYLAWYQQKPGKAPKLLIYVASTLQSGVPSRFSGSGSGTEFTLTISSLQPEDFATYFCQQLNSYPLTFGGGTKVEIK | 15.8
H1H6795P (antibody, human IgG1, V domains shown, Human IgG1 Fc (H1H)) VH: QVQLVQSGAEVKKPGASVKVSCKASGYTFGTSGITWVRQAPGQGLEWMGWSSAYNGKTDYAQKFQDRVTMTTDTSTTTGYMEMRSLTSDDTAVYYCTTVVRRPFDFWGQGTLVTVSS VL: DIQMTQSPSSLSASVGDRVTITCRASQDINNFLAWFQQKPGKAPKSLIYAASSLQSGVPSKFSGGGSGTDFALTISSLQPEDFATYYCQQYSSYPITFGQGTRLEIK | 7

Query block: # get_value(readout='T½', item= H1H6804P (antibody, human IgG1, V domains shown, Human IgG1 Fc (H1H)) VH: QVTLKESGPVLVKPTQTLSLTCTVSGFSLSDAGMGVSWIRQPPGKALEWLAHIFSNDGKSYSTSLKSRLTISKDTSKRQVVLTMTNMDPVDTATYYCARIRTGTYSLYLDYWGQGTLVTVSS VL: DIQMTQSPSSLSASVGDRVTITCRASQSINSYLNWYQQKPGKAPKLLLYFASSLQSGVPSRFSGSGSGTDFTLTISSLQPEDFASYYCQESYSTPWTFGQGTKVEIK )
Result block: 18
